The entries below are paired with their reported cell viability.
System: MOLM14;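 further: after 48 h exposure read by CellTiter-Glo luminescence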
Test: cell viability relative to vehicle control; higher = less cytotoxic
Conditions: 10 µM; SRSF2 genotype: SRSF2 wt/wt
Structures can show the parent of a compound that is named as a salt.

{"compound": "c1coc(CNc2ncnc3[nH]cnc23)c1", "study.system": "MOLM14", "result.units": "%", "cell viability": 105}
{"compound": "Cc1nc2ccc(-n3ncc(C(=O)c4cc5ccccc5[nH]4)c3N)cc2[nH]1", "study.system": "MOLM14", "result.units": "%", "cell viability": 47.5}
{"compound": "Cc1ncc(CO)c(CO)c1O [Metadoxine]", "study.system": "MOLM14", "result.units": "%", "cell viability": 103}
{"compound": "COc1cc2ncc(-c3ccccc3)nc2cc1OC", "study.system": "MOLM14", "result.units": "%", "cell viability": 56}
{"compound": "CC(C)(C)NC[C@H](O)COc1nsnc1N1CCOCC1 [Timolol Maleate]", "study.system": "MOLM14", "result.units": "%", "cell viability": 103}
{"compound": "CCOc1cn(-c2ccc(F)cc2C)nc1C(=O)Nc1ccc(Oc2ccnc3cc(OC)c(OC)cc23)c(F)c1", "study.system": "MOLM14", "result.units": "%", "cell viability": 19.6}
{"compound": "Cc1ncc([N+](=O)[O-])n1CC(C)O (configuration not stated)", "study.system": "MOLM14", "result.units": "%", "cell viability": 108}
